assay: Inhibition of human recombinant Cathepsin L-like protease using Z-FR-AMC as substrate preincubated for 30 mins followed by substrate addition and measured after 1.5 hrs by fluorescence based analysis
Let's look at some compounds and their measured IC50.
quantity: IC50

>>> print(df.to_string())
                           molecular_string  value_measured
0  C=CC(=O)[C@H](Cc1ccccc1)NC(=O)[C@H](CC(C)C)NC(=O)/C=C/c1ccccc1       > 1000 nM
1  CC(C)C[C@H](NC(=O)/C=C/c1ccccc1)C(=O)N[C@@H](C=O)Cc1ccccc1       > 1000 nM
2  CCC(=O)[C@H](Cc1ccccc1)NC(=O)[C@H](CC(C)C)NC(=O)/C=C/c1ccccc1       > 1000 nM
3  CC(C)C[C@@H](NC(=O)/C=C/c1ccccc1)C(=O)N[C@H](C=O)Cc1ccccc1       > 1000 nM
